pIC50: −log10 of the molar value.
Recorded pIC50 for compounds tested on Cyclin-dependent kinase 2 (Homo sapiens), drawn from a number of studies.
Label Satisfied when pIC50 is at or above 6; anything below gets Not satisfied.

Exam item: pIC50 >= 6 for Cc1ccc2c(-c3ccnc(Nc4ccccc4)n3)c(-c3ccc(C(F)(F)F)cc3)nn2n1 ?
Marked response: Not satisfied

Exam item: pIC50 >= 6 for COc1cc(N2CCN(C(C)=O)CC2)ccc1Nc1ncc(F)c(-c2cnc3ccccn23)n1 ?
Marked response: Not satisfied

Exam item: pIC50 >= 6 for Nc1nccc(-n2cc(-c3ccc(Cl)cc3)c3cnccc32)n1 ?
Marked response: Satisfied

Exam item: pIC50 >= 6 for COc1cc(Nc2nccc(-c3cnn4nc(C)ccc34)n2)cc(C(F)(F)F)c1 ?
Marked response: Satisfied

Exam item: pIC50 >= 6 for Nc1nc2ccc(C(=O)c3ccccc3Cl)cn2c1C(=O)c1c(F)cccc1F ?
Marked response: Satisfied

Exam item: pIC50 >= 6 for CNCc1cccc(/C=N\Nc2ncnc3sc(C(C)(C)C)cc23)n1 ?
Marked response: Not satisfied

Exam item: pIC50 >= 6 for NCCOc1cc(-c2ccc[nH]2)c2c3c(ccc(F)c13)NC2=O ?
Marked response: Satisfied

Exam item: pIC50 >= 6 for Cc1cc(Nc2nc(N[C@@H](C)c3ncc(F)cn3)c(C#N)nc2C)n[nH]1 ?
Marked response: Satisfied

Exam item: pIC50 >= 6 for CC(=O)NCCNc1cc(-c2ccc[nH]2)c2c3c(ccc(F)c13)NC2=O ?
Marked response: Satisfied

Exam item: pIC50 >= 6 for Nc1nc(Nc2ccc(S(=O)(=O)NC(=O)CCC(=O)O)cc2)nn1C(=O)c1c(F)cccc1F ?
Marked response: Satisfied

Exam item: pIC50 >= 6 for CN(C)Cc1ccc2ccc(Cl)c(C3=C(c4cn(C)c5ccccc45)C(=O)NC3=O)c2c1 ?
Marked response: Satisfied

Exam item: pIC50 >= 6 for CN1CCN(CCCCOc2c(OCc3ccc(C#N)cc3)cc(O)c3c(=O)cc(-c4ccccc4)oc23)CC1 ?
Marked response: Not satisfied

Exam item: pIC50 >= 6 for O=C(Nc1n[nH]c2ccc(-c3cncc(NC[C@H](O)c4ccccc4)c3)cc12)c1ccccc1 ?
Marked response: Satisfied
